Each recorded value in this set is attributed to patent US10239849B2.

Biological target: glutathione-S-transferase (GST) tagged LXRbeta LBD (ligand binding domain) (Homo sapiens)
Construct: purchased Invitrogen pv4658.pps
Sequence (P55055 222-460 limits assumed): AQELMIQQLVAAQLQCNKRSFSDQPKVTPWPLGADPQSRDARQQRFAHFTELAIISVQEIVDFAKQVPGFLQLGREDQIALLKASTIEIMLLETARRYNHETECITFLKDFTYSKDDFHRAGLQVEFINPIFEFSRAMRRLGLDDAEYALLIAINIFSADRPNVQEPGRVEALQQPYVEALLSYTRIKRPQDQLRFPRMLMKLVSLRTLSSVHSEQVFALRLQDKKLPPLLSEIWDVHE
Test: LanthaScreen TR-FRET Liver X Receptor Coactivator Assay, LXR beta-LBD
Format: biochemical
Conditions: efficacy in relation to reference dual agonist T1317; read-out: LXR beta activity at max dose (%) (Emax)
Procedure: While running the LanthaScreen™ TR-FRET Liver X Receptor Coactivator Assay, LXR alpha-LBD or LXR beta-LBD was added to ligand test compounds followed by addition of a mixture of a fluorescein-labelled coactivator peptide and terbium-conjugated anti-GST antibody. After an incubation period at room temperature, TR-FRET (time-resolved fluorescence resonance energy transfer) was measured using a filter-based instrument capable of TR-FRET, e.g. PerkinElmer Envision.
property measured: Emax
Remember to put the unit after the number in your answer.

Item `CN(C)C(=O)c1ccc(-c2cnc(N3CCN(S(=O)(=O)c4c(Cl)cccc4Cl)CC3)c(C#N)c2)cc1Cl` has what recorded Emax?
124%

Item `CC(C)(C)OC(=O)N1CCN(c2ncc(-c3ccc(C(=O)N4CCC4)c(Cl)c3)cc2C#N)CC1` has what recorded Emax?
71%

Item `CN(C)C(=O)c1ccc(-c2cnc(N3CCN(S(=O)(=O)c4ccccc4C#N)CC3)c(C#N)c2)cc1Cl` has what recorded Emax?
123%

Item `CN(C)C(=O)c1ccc(-c2cnc(N3CCN(C(=O)OCc4cccc(Cl)c4)CC3)c(C#N)c2)cc1Cl` has what recorded Emax?
75%

Item `CN(CCn1cncn1)C(=O)c1ccc(-c2cnc(N3CCN(C(=O)C(C)(C)c4ccccc4)CC3)c(C#N)c2)cc1Cl` has what recorded Emax?
113%

Item `CC(C)(C)OC(=O)N1CCN(c2ncc(-c3ccc(C(=O)N4CCOCC4)c(Cl)c3)cc2C#N)CC1` has what recorded Emax?
63%

Item `CN(C)C(=O)c1ccc(-c2ccc(N3CC4CCC(C3)N4C(=O)OC(C)(C)C)c(Cl)c2)cc1Cl` has what recorded Emax?
63%

Item `Cc1nonc1CC(=O)N1CCN(c2ncc(-c3ccc(C(=O)N(C)C)c(Cl)c3)cc2C#N)CC1` has what recorded Emax?
63%

Item `CN(C)C(=O)c1ccc(-c2ccc(N3CCN(C(=O)c4c(F)cccc4F)CC3)cc2)cc1Cl` has what recorded Emax?
77%

Item `CN(C)C(=O)c1ccc(-c2cc(Cl)c(N3CCN(C(=O)c4ccccc4Cl)CC3)c(Cl)c2)cc1Cl` has what recorded Emax?
39%

Item `CN(C)C(=O)c1ccc(-c2ccc(N3CCN(C(=O)OC(C)(C)C)CC3)c(C#N)c2)cc1Cl` has what recorded Emax?
81%

Item `CC(C)(C)OC(=O)N1CCN(c2ncc(-c3ccc(C(=O)N4CC[C@@H](O)C4)c(Cl)c3)cc2C#N)CC1` has what recorded Emax?
60%

Item `CN(C)NC(=O)c1ccc(-c2cnc(N3CCN(C(=O)OC(C)(C)C)CC3)c(C#N)c2)cc1Cl` has what recorded Emax?
77%

Item `CN(C)C(=O)c1ccc(-c2ccc(N3CCCN(C(=O)OC(C)(C)C)CC3)cc2)cc1Cl` has what recorded Emax?
86%

Item `CN(C)C(=O)c1ccc(-c2cnc(N3CCN(S(=O)(=O)c4ccccc4Cl)CC3)c(C#N)c2)cc1Cl` has what recorded Emax?
108%

----------
For each entry below, report its EC50 value.
Target: glutathione-S-transferase (GST) tagged LXRbeta LBD (ligand binding domain) (Homo sapiens)
Sequence (P55055 222-460 limits assumed): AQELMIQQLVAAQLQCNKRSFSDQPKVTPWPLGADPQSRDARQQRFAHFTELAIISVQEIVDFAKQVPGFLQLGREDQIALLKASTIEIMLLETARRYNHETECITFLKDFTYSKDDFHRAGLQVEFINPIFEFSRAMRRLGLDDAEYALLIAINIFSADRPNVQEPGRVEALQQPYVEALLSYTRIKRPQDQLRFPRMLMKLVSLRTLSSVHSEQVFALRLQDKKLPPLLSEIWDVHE
Test: LanthaScreen TR-FRET Liver X Receptor Coactivator Assay, LXR beta-LBD
Conditions: potency (Inflection Point) of co-activator recruitment, TR-FRET; read-out: LXR beta IP
The figure you give is taken to be in µM; do not add the unit.

Item CN(C)C(=O)c1ccc(-c2cnc(N3CCN(C(=O)OC(C)(C)C)C(c4ccccc4)C3)c(C#N)c2)cc1Cl (centres unmarked) has what recorded EC50?
0.006

Item `CN(C)C(=O)c1ccc(-c2cnc(N3CCN(C(=O)[C@H](O)C(F)(F)F)CC3)c(C#N)c2)cc1Cl` has what recorded EC50?
1.06

Item `CON(C)C(=O)c1ccc(-c2cnc(N3CCN(C(=O)OC(C)(C)C)CC3)c(C#N)c2)cc1Cl` has what recorded EC50?
0.082

Item CN(C)C(=O)c1ccc(-c2cnc(N3CCN(C(=O)C(O)(c4ccccc4Cl)C(F)(F)F)CC3)c(C#N)c2)cc1Cl (centres unmarked) has what recorded EC50?
0.013

Item `Cc1nonc1CC(=O)N1CCN(c2ncc(-c3ccc(C(=O)N(C)C)c(Cl)c3)cc2C#N)CC1` has what recorded EC50?
2.33

Item `COc1ccccc1COC(=O)N1CCN(c2ncc(-c3ccc(C(=O)N(C)C)c(Cl)c3)cc2C#N)CC1` has what recorded EC50?
0.036

Item `CN(C)C(=O)c1ccc(-c2ccc(N3CCN(C(=O)c4c(F)cccc4C(F)(F)F)CC3)c(Cl)c2)cc1Cl` has what recorded EC50?
0.106

Item `CN(C)C(=O)c1ccc(-c2cnc(N3CCN(C(=O)c4c(F)cccc4F)CC3)c(C#N)c2)cc1Cl` has what recorded EC50?
0.212

Item `CN(C)C(=O)c1ccc(-c2ccc(N3CCN(S(=O)(=O)c4c(Cl)cccc4C(F)(F)F)CC3)cc2)cc1Cl` has what recorded EC50?
0.549

Item `COc1ccc(COC(=O)N2CCN(c3ncc(-c4ccc(C(=O)N(C)C)c(Cl)c4)cc3C#N)CC2)cc1` has what recorded EC50?
0.21

Item `CN(C)C(=O)c1ccc(-c2cnc(N3CCN(C(=O)[C@](O)(c4ccccc4)C(F)(F)F)CC3)c(C#N)c2)cc1Cl` has what recorded EC50?
0.001

Item CN(C)C(=O)c1ccc(-c2cnc(N3CCN(C(=O)C4Cc5ccccc54)CC3)c(C#N)c2)cc1Cl (centres unmarked) has what recorded EC50?
0.057

Item `CN(CCn1cncn1)C(=O)c1ccc(-c2cnc(N3CCN(C(=O)[C@](O)(c4ccccc4)C(F)(F)F)CC3)c(C#N)c2)cc1Cl` has what recorded EC50?
0.002

Item `CC(C)(C)OC(=O)N1CCN(c2ncc(-c3ccc(C(=O)N(CCO)CCO)c(Cl)c3)cc2C#N)CC1` has what recorded EC50?
0.102

----------
Molecular target: glutathione-S-transferase (GST) tagged LXRalpha LBD (ligand binding domain) (Homo sapiens, UniProt Q13133)
Construct: purchased Invitrogen pv4655
Sequence (Q13133 209-447 limits assumed): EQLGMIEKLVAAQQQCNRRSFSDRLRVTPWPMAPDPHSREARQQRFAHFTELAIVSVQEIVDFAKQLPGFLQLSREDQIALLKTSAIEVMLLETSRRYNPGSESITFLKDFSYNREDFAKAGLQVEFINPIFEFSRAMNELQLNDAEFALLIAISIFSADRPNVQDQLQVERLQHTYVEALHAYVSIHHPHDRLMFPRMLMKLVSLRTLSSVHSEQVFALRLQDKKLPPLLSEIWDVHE
Assay: LanthaScreen TR-FRET Liver X Receptor Coactivator Assay, LXR alpha-LBD
Assay type: biochemical
Conditions: efficacy in relation to reference dual agonist T1317; read-out: LXR alpha activity at max dose (%) (Emax)
Cut-off 40% on Emax, inclusive. At or above means y; below means n.

Could you please find out whether CN(C)C(=O)c1ccc(-c2cnc(N3CCN(C(=O)OCc4c(Cl)cccc4Cl)CC3)c(C#N)c2)cc1Cl [Example 3-1] has Emax that meets 40% or exceeds it?
y

Could you please find out whether CN(C)C(=O)c1ccc(-c2cnc(N3CCN(C(=O)OCc4cccc(Cl)c4)CC3)c(C#N)c2)cc1Cl [Example 3-10] has Emax that meets 40% or exceeds it?
y

Could you please find out whether CN(C)C(=O)c1ccc(-c2ccc(N3CCN(C(=O)[C@](O)(c4ccccc4)C(F)(F)F)CC3)cc2)cc1Cl [Example 2-27] has Emax that meets 40% or exceeds it?
n

Could you please find out whether CC(C)(C)OC(=O)N1CCN(c2ncc(-c3ccc(C(=O)N(CCCO)C4CC4)c(Cl)c3)cc2C#N)CC1 [Example 5-20] has Emax that meets 40% or exceeds it?
n

Could you please find out whether CN(C)C(=O)c1ccc(-c2ccc(N3CC4CCC(C3)N4S(=O)(=O)c3c(Cl)cccc3Cl)c(Cl)c2)cc1Cl [Example 8-16] has Emax that meets 40% or exceeds it?
y

Could you please find out whether CN(C)C(=O)c1ccc(-c2cnc(N3CCN(S(=O)(=O)c4ccccc4)CC3)c(C#N)c2)cc1Cl [Example 1-16] has Emax that meets 40% or exceeds it?
y

Could you please find out whether CC(C)(C)OC(=O)N1CCN(c2ncc(-c3ccc(C(=O)NCCCO)c(Cl)c3)cc2C#N)CC1 [Example 5-10] has Emax that meets 40% or exceeds it?
n
